assay: qHTS assay for small molecule agonists of the p53 signaling pathway (AID 651631); settings: HCT-116 p53RE-bla reporter, beta-lactamase FRET ratio, 16 h; series mostly up to 73.3 µM; also: nearly all actives have a fitted effect of over 15% in size
Records with an inconclusive call do not appear. Calls of active or inactive are those of the source. Calls follow the shape of the full dose curve.
Your response should consist of one outcome taken from active, inactive

Ask: Look up the recorded call for CC(C1CC1)C(O)(Cn1cncn1)c1ccc(Cl)cc1 (configuration not stated) in this test.
Reply: inactive

Ask: Look up the recorded call for CC(CC(C#N)(c1ccccc1)c1ccccc1)N(C)C (configuration not stated) in this test.
Reply: inactive

Ask: Look up the recorded call for CC1CCC(=O)O1 (configuration not stated) in this test.
Reply: inactive

Ask: Look up the recorded call for CC1=NNC(=O)N(/N=C/c2cccnc2)C1 in this test.
Reply: inactive

Ask: Look up the recorded call for O=c1oc2ccccc2c(O)c1C1CCCc2ccccc21 (configuration not stated) in this test.
Reply: inactive

Ask: Look up the recorded call for CCOP(=S)(OCC)Oc1cc(-c2ccccc2)on1 in this test.
Reply: inactive

Ask: Look up the recorded call for Nc1cc(Cl)ccc1O in this test.
Reply: active

Ask: Look up the recorded call for COc1ccc(C(=O)N2CCCC2=O)cc1 in this test.
Reply: inactive

Ask: Look up the recorded call for CN1C[C@@H](NS(=O)(=O)N(C)C)C[C@@H]2c3cccc4c3c(cn4C)C[C@H]21 in this test.
Reply: inactive

Ask: Look up the recorded call for O=C(NCO)NCO in this test.
Reply: inactive

Ask: Look up the recorded call for CC1CCCCC1NC(=O)Nc1ccccc1 (configuration not stated) in this test.
Reply: inactive

Ask: Look up the recorded call for CCOP(=S)(Oc1cnc(C(C)(C)C)nc1)OC(C)C (configuration not stated) in this test.
Reply: inactive

Ask: Look up the recorded call for O=C(O)c1ccc2[nH]cc(CCCCN3CC=C(c4ccccc4)CC3)c2c1 in this test.
Reply: inactive

Ask: Look up the recorded call for Cc1cccc(C#N)c1 in this test.
Reply: inactive

Ask: Look up the recorded call for CNNC in this test.
Reply: inactive

Ask: Look up the recorded call for CCS(=O)(=O)C(C)(C)S(=O)(=O)CC in this test.
Reply: inactive

Ask: Look up the recorded call for CC(=O)Nc1cc([As](=O)(O)O)ccc1O in this test.
Reply: inactive

Ask: Look up the recorded call for O=C(Oc1ccc(Br)cc1)N1CCN2CCC1CC2 in this test.
Reply: inactive

Ask: Look up the recorded call for CCCCCCI in this test.
Reply: inactive

Ask: Look up the recorded call for C#C[C@]1(O)C=C[C@H]2[C@@H]3CCC4=CC(=O)CC[C@@H]4[C@H]3CC[C@@]21CC in this test.
Reply: inactive

Ask: Look up the recorded call for BrCCCCCCBr in this test.
Reply: inactive

Ask: Look up the recorded call for CCCCCCBr in this test.
Reply: inactive

Ask: Look up the recorded call for CC1=C(C(=O)Nc2ccccc2)S(=O)(=O)CCO1 in this test.
Reply: active

Ask: Look up the recorded call for CC(C)CP(=S)(S)CC(C)C in this test.
Reply: inactive

Ask: Look up the recorded call for N#CCNCC#N in this test.
Reply: inactive

Ask: Look up the recorded call for c1coc(-c2nc3ccccc3[nH]2)c1 in this test.
Reply: inactive

Ask: Look up the recorded call for NC(=O)c1cc([N+](=O)[O-])cc([N+](=O)[O-])c1 in this test.
Reply: inactive
